target: T1, human IL-21R extracellular domain His-Flag fusion protein (human, UniProt Q9HBE5 20-232); experiment: SPR, Ab captured on anti-human IgG
T1 construct: Biotinylated in the HTRF screen; also called hIL-21R-H/F; human IL-21R-H/F
T1 sequence (Q9HBE5 20-232): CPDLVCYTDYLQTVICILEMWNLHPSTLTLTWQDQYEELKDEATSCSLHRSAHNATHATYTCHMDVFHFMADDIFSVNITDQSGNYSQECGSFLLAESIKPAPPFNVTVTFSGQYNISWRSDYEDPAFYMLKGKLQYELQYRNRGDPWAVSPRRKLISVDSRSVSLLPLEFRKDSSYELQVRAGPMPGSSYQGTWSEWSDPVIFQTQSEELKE
Classify: Criterion met when Kd is strictly less than 600 pM; Criterion not met when Kd is not.

Problem: Report whether reported Kd is lower than 600 pM (strictly) for parental 18A5 antibody (antibody, V domains shown, also called 18A5 IgG) VH: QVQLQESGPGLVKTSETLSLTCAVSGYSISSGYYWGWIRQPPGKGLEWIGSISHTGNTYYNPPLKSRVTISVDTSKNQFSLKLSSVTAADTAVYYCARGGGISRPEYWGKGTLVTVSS VL: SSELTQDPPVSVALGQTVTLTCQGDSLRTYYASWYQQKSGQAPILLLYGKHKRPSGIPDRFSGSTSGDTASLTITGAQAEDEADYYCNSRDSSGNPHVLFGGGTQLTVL
Solution: Criterion not met

Problem: Report whether reported Kd is lower than 600 pM (strictly) for AbT (antibody, human IgG1, V domains shown, CDR3 graft, residue limits derived as for m29; also called VHP/VL9; VHPTM/VL9) VH: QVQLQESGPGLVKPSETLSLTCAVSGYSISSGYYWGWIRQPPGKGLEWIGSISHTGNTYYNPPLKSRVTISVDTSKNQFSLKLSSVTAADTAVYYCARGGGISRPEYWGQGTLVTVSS VL: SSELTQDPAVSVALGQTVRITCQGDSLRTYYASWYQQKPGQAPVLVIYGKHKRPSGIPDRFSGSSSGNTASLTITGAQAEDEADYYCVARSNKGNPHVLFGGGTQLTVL
Solution: Criterion met

Problem: Report whether reported Kd is lower than 600 pM (strictly) for AbQ (antibody, human IgG1, V domains shown, CDR3 graft, residue limits derived as for m29; also called VH3/VL2; VH3DM/VL2) VH: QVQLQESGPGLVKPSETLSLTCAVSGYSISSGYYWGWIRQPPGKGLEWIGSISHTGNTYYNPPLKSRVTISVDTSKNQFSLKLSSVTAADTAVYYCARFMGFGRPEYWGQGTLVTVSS VL: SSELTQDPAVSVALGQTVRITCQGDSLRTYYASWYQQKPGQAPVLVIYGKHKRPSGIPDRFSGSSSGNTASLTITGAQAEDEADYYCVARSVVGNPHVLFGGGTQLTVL
Solution: Criterion met

Problem: Report whether reported Kd is lower than 600 pM (strictly) for AbO (antibody, human IgG1, V domains shown, CDR3 graft, residue limits derived as for m29; also called VHP/VL16; VHPTM/VL16) VH: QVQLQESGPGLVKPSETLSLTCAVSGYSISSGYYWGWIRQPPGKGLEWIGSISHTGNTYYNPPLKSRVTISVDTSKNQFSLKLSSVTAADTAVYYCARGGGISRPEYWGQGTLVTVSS VL: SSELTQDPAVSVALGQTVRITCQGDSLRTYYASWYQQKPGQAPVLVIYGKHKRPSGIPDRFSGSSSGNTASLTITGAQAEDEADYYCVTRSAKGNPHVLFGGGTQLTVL
Solution: Criterion met

Problem: Report whether reported Kd is lower than 600 pM (strictly) for AbR (antibody, human IgG1, V domains shown, CDR3 graft, residue limits derived as for m29; also called VH3/VL18; VH3DM/VL18) VH: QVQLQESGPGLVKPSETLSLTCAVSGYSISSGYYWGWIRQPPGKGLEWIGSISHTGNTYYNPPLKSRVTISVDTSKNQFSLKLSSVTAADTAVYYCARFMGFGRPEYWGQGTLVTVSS VL: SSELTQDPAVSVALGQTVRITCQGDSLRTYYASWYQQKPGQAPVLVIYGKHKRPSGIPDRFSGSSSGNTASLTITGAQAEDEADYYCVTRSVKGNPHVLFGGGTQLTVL
Solution: Criterion met
